Measured on: vanilloid receptor (VR1) (Homo sapiens)
Construct: expressed in transfected cells; host or cells: CHO K1 cells (ECACC), stably transfected
Sequence (Q8NER1 whole entry): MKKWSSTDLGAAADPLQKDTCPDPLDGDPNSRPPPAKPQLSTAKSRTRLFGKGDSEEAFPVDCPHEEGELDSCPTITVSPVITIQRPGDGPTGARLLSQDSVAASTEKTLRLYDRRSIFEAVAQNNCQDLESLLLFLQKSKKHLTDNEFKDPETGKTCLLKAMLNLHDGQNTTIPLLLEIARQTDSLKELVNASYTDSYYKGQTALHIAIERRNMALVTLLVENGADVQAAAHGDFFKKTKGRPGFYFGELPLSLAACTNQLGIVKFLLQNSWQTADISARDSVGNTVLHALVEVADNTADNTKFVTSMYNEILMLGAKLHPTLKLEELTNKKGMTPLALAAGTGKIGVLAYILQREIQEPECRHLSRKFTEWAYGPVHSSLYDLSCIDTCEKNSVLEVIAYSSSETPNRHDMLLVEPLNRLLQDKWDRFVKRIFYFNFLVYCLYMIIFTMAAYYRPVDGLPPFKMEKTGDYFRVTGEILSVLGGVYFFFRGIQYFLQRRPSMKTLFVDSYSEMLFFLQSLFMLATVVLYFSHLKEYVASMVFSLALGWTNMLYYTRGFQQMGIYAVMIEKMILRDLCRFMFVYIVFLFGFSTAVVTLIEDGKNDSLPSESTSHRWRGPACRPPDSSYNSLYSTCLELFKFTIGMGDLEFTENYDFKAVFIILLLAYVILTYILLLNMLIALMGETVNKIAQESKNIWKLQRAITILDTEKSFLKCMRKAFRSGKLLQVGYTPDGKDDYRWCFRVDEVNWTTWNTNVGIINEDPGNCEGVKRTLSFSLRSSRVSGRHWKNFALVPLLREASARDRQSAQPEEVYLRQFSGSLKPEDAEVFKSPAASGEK
Assay comment: FLIPR Ca2+ influx assay on CHO K1 cells transfected with the VR1 gene (pharmacological method II)
Assay type: cell-based
Setup conditions: CHO-K1; @ 1 μM; ne = no effect; read-out: inhibition in percent, Ki (human) Cap.
Please use label 1 whenever inhibition at 1 µM is not below 8%, and label 0 whenever it is.

Here are 5 molecules together with their reported answers.
- Molecule: "CC(C(=O)NCc1ccc(C(F)(F)F)nc1N1CCC(N2CCCCC2)CC1)c1ccc(NS(C)(=O)=O)c(F)c1 (centres unmarked)"
  Discrete label: "label 1"
- Molecule: "CC(C(=O)NCc1c(CO)cc(C(C)(C)C)nc1OCc1ccccc1)c1ccc(NS(C)(=O)=O)c(F)c1 (centres unmarked)"
  Discrete label: "label 1"
- Molecule: "CC1CCN(c2nc(C(F)(F)F)ccc2CNC(=O)C(C)c2ccc(NS(=O)(=O)C(F)(F)F)c(F)c2)CC1 (centres unmarked)"
  Discrete label: "label 0"
- Molecule: "CC(C(=O)NCc1ccc(C(F)(F)F)nc1Nc1ccc(F)cc1)c1ccc(NS(C)(=O)=O)c(F)c1 (centres unmarked)"
  Discrete label: "label 1"
- Molecule: "CC(C(=O)NCc1ccc(C(F)(F)F)nc1N1CCS(=O)(=O)CC1)c1ccc(NS(C)(=O)=O)c(F)c1 (centres unmarked)"
  Discrete label: "label 1"

Answer whether inhibition at 1 µM of CC(C(=O)NCc1ccc(C(F)(F)F)nc1OC1CCNCC1)c1ccc(NS(C)(=O)=O)c(F)c1 (centres unmarked) is greater than or equal to 8%.
label 0

Answer whether inhibition at 1 µM of CC(C(=O)NCc1ccc(C(F)(F)F)nc1N1CCN(c2ccncc2)CC1)c1ccc(NS(C)(=O)=O)c(F)c1 (centres unmarked) is greater than or equal to 8%.
label 0

The measured values listed here are drawn from patent US8710233B2.
